Origin of measurements: FireProtDB (doi:10.1021/bi00093a001)

B1: Subtilisin-chymotrypsin inhibitor-2A, P01053 (parent)
chain: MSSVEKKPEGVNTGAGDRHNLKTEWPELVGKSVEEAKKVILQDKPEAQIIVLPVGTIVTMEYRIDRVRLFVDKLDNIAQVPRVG

variants of: B1; conditions: Hordeum vulgare; pH 3; Thermal; DSC; MES 450 mM; reversible: yes; structure 2CI2; whole UniProt chain shown
quantity: unfolding enthalpy (calorimetric) (kcal/mol)

[[record]]
monomersequence = "MSSVEKKPEGVNTGAGDRHNLKTEWPELVGKSVEEAKKVVLQDKPEAQIIVLPVGTIVTMEYRIDRVRLFVDKLDNIAQVPRVG [I40V]"
unitstext = "kcal/mol"
val = 53.7

[[record]]
monomersequence = "MSSVEKKPEGVNTGAGDRHNLKTEWPELVGKSVEEAKKAILQDKPEAQIIVLPVGTIVTMEYRIDRVRLFVDKLDNIAQVPRVG [V39A]"
unitstext = "kcal/mol"
val = 58.5

[[record]]
monomersequence = "MSSVEKKPEGVNTGAGDRHNLKTEWPELVGKSVEEAKKVILQDKPEAQIIVLPVGTIVTMEYRIDRVRLFVDKLDNAAQVPRVG [I77A]"
unitstext = "kcal/mol"
val = 30.2

